The measurements presented in this section are drawn from ChEMBL document CHEMBL1201862.

System: SN12C
Assay: NCI tumour cell line growth inhibition, 48 h
Activity calls are given as the source filed them. Rule as the data show it: active = GI50 up to about 1.1 µM and inactive = higher.
ENDPOINT_NAME: GI50

Some molecules with known GI50 results, for comparison:
MOLECULE: Nc1cccc2c1C(=O)c1cccc(N)c1C2=O
GI50: > 100 µM (inactive)
//
MOLECULE: O=[N+]([O-])C(=C1NCCN1)/C(Cl)=C(\Cl)Br
GI50: 41.2 µM (inactive)
//
MOLECULE: O[C@@H]1C[C@@H]2N[C@@](O)(C[C@@H]2O)[C@H]1O
GI50: > 100 µM (inactive)
//
MOLECULE: COc1cc(Cn2c3c(c4cc(O)ccc42)Cc2ccccc2C3=O)cc(OC)c1
GI50: 24.7 µM (inactive)
//
MOLECULE: O=C1c2ccccc2C(=O)N1c1ccc(OCCN2CCCCC2)cc1
GI50: > 100 µM (inactive)

Consider the additional molecule presented here.
Q. Recall the recorded GI50 for CC(C)=CC1C(COC(=O)c2cc3c(cc2Cl)OCO3)C1(C)C (stereo unspecified) with SN12C and state it.
A. 39.5 µM (inactive)
